- assay_target: T1, natriuretic peptide receptor-B (human)
- T1 chain: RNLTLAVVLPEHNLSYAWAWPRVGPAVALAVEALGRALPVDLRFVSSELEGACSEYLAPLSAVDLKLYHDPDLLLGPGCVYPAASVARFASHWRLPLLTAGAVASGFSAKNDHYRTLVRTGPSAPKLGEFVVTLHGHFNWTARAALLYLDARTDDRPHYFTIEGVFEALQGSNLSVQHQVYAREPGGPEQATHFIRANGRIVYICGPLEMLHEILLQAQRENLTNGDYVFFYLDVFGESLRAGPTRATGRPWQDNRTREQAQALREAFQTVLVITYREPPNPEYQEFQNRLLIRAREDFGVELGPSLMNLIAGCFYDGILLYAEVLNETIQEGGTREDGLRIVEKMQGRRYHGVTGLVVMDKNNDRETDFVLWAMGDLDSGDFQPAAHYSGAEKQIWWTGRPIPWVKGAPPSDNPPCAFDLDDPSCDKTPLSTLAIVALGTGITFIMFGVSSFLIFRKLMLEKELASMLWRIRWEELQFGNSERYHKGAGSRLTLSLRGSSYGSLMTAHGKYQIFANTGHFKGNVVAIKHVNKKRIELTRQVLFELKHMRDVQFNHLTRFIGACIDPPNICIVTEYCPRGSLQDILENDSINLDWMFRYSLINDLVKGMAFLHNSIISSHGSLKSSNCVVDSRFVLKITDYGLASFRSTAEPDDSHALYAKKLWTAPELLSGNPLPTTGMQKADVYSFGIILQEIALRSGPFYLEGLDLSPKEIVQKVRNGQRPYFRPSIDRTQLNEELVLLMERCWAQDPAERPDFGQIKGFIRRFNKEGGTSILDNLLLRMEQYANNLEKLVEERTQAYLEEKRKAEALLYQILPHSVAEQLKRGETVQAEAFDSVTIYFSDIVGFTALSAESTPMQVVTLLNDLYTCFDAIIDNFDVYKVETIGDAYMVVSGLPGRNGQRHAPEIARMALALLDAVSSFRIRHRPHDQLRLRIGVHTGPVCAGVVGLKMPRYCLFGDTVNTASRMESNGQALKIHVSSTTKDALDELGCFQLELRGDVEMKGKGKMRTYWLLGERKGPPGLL
- method_notes: cell-based or functional assay
Numbered stars: 1 amine (or outer) side, 2 acyl side, 3 side chain; on linkers, the order of the positions; unused ones are H or OH. Square brackets hold non-standard residues; d marks the D form. Ends that are not written are not given here. * marks the point of attachment. Ebe = (R)-2-amino-3-(methylsulfanyl)propanoic acid, CSC[C@H](N[*:1])C(=O)[*:2]; Sni = (S)-nipecotic acid, O=C([C@H]1CCCN([*:1])C1)[*:2]; Hyp = O=C(O)[C@@H]1C[C@@H](O)CN1; 3Thi = N[C@@H](Cc1ccsc1)C(=O)O; dTle = CC(C)(C)[C@@H](N)C(=O)O; NMeL = CN[C@@H](CC(C)C)C(=O)O; hLeu = CC(C)CC[C@H](N)C(=O)O; dOrn = NCCC[C@@H](N)C(=O)O; Octanoyl = CCCCCCCC(=O)*; Che = not defined here; Hexanoyl = CCCCCC(=O)*; Rni = not defined here; leu = not defined here; thz = not defined here; Occ = octanoic acid
assay_readout: EC50 group, cGMP in GTM-3 cells

| binder | assay_readout | result |
| --- | --- | --- |
| Octanoyl-[dA]F[dOrn]L[Hyp][NMeL]DRI-NH2 [JAL-1061] | EC50 group, cGMP in GTM-3 cells | ≤ 1 µM |
| Octanoyl-[Sni]F[dL][NMeL][Hyp][NMeL]DP[Che] (not fully specified; printed as Occ-Sni-Phe-leu-Nml-Hyp-Nml-Asp-Pro-Che; reading uncertain) [JAL-1598] | EC50 group, cGMP in GTM-3 cells | ≤ 15 µM |
| [Occ][Sni][3Thi][leu]L[Hyp][NMeL]DRI-NH2 (reading uncertain; also: printed as Occ-Sni-Thk-leu-Leu-Hyp-Nml-Asp-Arg-Ile-NH2) [JAL-1620] | EC50 group, cGMP in GTM-3 cells | ≤ 1 µM |
| Hexanoyl-[Ebe][dP]FGLPIDRIS[Ebe]-NH2 [JAL-0533] | EC50 group, cGMP in GTM-3 cells | ≤ 15 µM |
| [Occ][Sni]F[leu]L[Hyp][NMeL]DRI-OH (reading uncertain; also: printed as Occ-Sni-Phe-leu-Leu-Hyp-Nml-Asp-Arg-Ile-OH) [JAL-1930] | EC50 group, cGMP in GTM-3 cells | ≤ 5 µM |
| [Occ]AFG[hLeu]PLDRI-NH2 (not fully specified (residue 2); printed as Occ-ala-Phe-Gly-Hle-Pro-Leu-Asp-Arg-Ile-NH2) [JAL-0998] | EC50 group, cGMP in GTM-3 cells | ≤ 15 µM |
| [Occ][dTle]FGLKLDRI-NH2 [JAL-0758] | EC50 group, cGMP in GTM-3 cells | ≤ 15 µM |
| XAFRXXXDRI (Occ-ala-Phe-arg-Dap(Me2)-Hyp-Nml-Asp-Arg-Ile-NH2) [JAL-1315] | EC50 group, cGMP in GTM-3 cells | ≤ 15 µM |
| [Occ][Rni]FGLKLDRI-NH2 (reading uncertain; also: printed as Occ-Rni-Phe-Gly-Leu-Lys-Leu-Asp-Arg-Ile-NH2) [JAL-0744] | EC50 group, cGMP in GTM-3 cells | ≤ 15 µM |
| Octanoyl-[thz]FGLKLDRI-NH2 (reading uncertain; also: printed as Occ-thz-Phe-Gly-Leu-Lys-Leu-Asp-Arg-Ile-NH2) [JAL-0739] | EC50 group, cGMP in GTM-3 cells | ≤ 15 µM |
